Reference source for all entries: patent US20230286973A1

- Test Protocol: Liver Microsome Stability Assay (monkey)
- Test Context: monkey liver microsomes, with NADPH, 1.0 uM compound
Liver Microsome Stability (Multiple Species): Monkey - % Remaining after 30 min w/NADPH of 0.2% or higher: fulfilled. Under 0.2%: not fulfilled.

In [3]: df
Out[3]:
                                   compound  group_label
0  Cc1cc(C(=O)Nc2nc([C@H]3CCCN3c3ccc(NC(=O)N(C)C)cc3)cs2)n(Cc2ccnc(F)c2)c1 [Compound A163]    fulfilled

Is Liver Microsome Stability (Multiple Species): Monkey - % Remaining after 30 min w/NADPH at least 0.2%? Consider O=C(Nc1nc([C@H]2CCCN2c2ccccc2)cs1)c1cccn1CC1CC(F)(F)C1 [Compound C94] fulfilled

Do the same for CC(=O)N1CCCCC1c1ccc(N2CCC[C@@H]2c2csc(NC(=O)c3cccn3Cc3ccncc3)n2)cc1 (stereo partly drawn) [Compound A58] please fulfilled

Do the same for NC(=O)N1CCC(Oc2ccc(N3CCC[C@@H]3c3csc(NC(=O)c4cccn4Cc4ccnc(F)c4)n3)cc2)CC1 [Compound A135] please fulfilled

Do the same for CC(=O)Nc1ccc(N2CCC[C@@H]2c2csc(NC(=O)c3cccn3CC3CCOCC3)n2)cc1 [Compound C107] please fulfilled

Do the same for O=C(Nc1nc(/C=C/c2cn(-c3ccccc3)cn2)cs1)c1cccn1Cc1ccnc(F)c1 [Compound B104] please not fulfilled

Do the same for O=C(Nc1nc([C@H]2CCCN2c2cnccn2)cs1)c1cccn1Cc1ccncc1 [Compound A30] please not fulfilled

Do the same for CC(C)c1ccc(/C=C/c2csc(NC(=O)c3cccn3Cc3cc(F)nc(F)c3)n2)nc1 [Compound B87] please not fulfilled

Do the same for CC(C)c1ccc(/C=C/c2csc(NC(=O)c3cccn3Cc3ccnc(F)c3)n2)nc1 [Compound B64] please not fulfilled

Do the same for CC(=O)NCCOc1ccc(N2CCC[C@@H]2c2csc(NC(=O)c3cccn3Cc3ccnc(F)c3)n2)cc1 [Compound A121] please fulfilled

Do the same for CC(=O)N1CCC(n2cnc(/C=C/c3csc(NC(=O)c4cccn4Cc4ccnc(F)c4)n3)c2)CC1 [Compound B91] please fulfilled
